molecular target: Akt1 kinase domain with the S473E mutation (Akt1-S473E)
Primed or numbered codes have the meaning given here. Biotin′ = not defined here; Az8 = not defined here
Property Label: Kd

Entry {Ac-Az8}-VFYRLGY-{Biotin′} (reading uncertain; also: printed as Ac-Az8-VFYRLGY-Biotin) [biotinylated anchor peptide Ac-Az8-VFYRLGY-Biotin] , Kd reported as > 25 µM
